# assayName: Antiischemic activity against Na2S2O4-induced hypoxia/reoxygenation cell injury in neonatal rat primary cardiac myocytes assessed as increase in cell survival rate at 10^-6 mol/L by MTT assay
# Type: functional, Cardiac muscle cell
measuredQuantity: Activity (%)
Write it as a number; the unit % goes unstated.

Lookup: Entry `COc1ccc(CN2CCN(Cc3ccc(C(=O)N=C(N)N)cc3[N+](=O)[O-])CC2)c(OC)c1OC` has what Activity?
Found: 50.41

Lookup: Entry `COc1ccc(CN2CCN(CCOc3ccc(C(=O)NC(=N)N)cc3NC(=O)c3ccc(Cl)cc3Cl)CC2)c(OC)c1OC` has what Activity?
Found: 49.27

Lookup: Entry `COc1ccc(CN2CCN(CCOc3ccc(C(=O)NC(=N)N)cc3NC(=O)c3ccccc3[N+](=O)[O-])CC2)c(OC)c1OC` has what Activity?
Found: 48.05

Lookup: Entry `COc1ccc(CN2CCN(CCOc3ccc(C(=O)NC(=N)N)cc3NC(=O)c3sccc3C)CC2)c(OC)c1OC` has what Activity?
Found: 53.22

----------
# assayName: Antiischemic activity against Na2S2O4-induced hypoxia/reoxygenation cell injury in neonatal rat primary cardiac myocytes assessed as increase in cell survival rate at 10^-4 mol/L by MTT assay
# Format: functional, Cardiac muscle cell
Could you please report measured Activity for the items listed next?
Write it as a number; the unit % goes unstated.

Lookup: Entry `COc1ccc(CN2CCN(CCOc3ccc(C(=O)NC(=N)N)cc3NC(=O)c3sccc3C)CC2)c(OC)c1OC` has what Activity?
Found: 72.41

Lookup: Entry `COc1ccc(CN2CCN(Cc3ccc(C(=O)N=C(N)N)cc3[N+](=O)[O-])CC2)c(OC)c1OC` has what Activity?
Found: 69.24

Lookup: Entry `COc1ccc(CN2CCN(CCOc3ccc(C(=O)NC(=N)N)cc3NC(=O)c3ccc(Cl)cc3Cl)CC2)c(OC)c1OC` has what Activity?
Found: 58.33

Lookup: Entry `COc1ccc(CN2CCN(CCOc3ccc(C(=O)NC(=N)N)cc3NC(=O)c3ccccc3[N+](=O)[O-])CC2)c(OC)c1OC` has what Activity?
Found: 56.48

Data origin: ChEMBL document CHEMBL1828582
